assay: Solubility in PBS (LC/UV AUC trend); conditions: PBS pH 7.4, 0.2 mg/ml; rating 1 (good) to 5 (poor)
Non-standard residues stand in square brackets, D forms with d. Residues, ends and D or L forms follow the SMILES beside them. *: point of attachment. dHis(τ-Bn) = N[C@H](Cc1cn(Cc2ccccc2)cn1)C(=O)O; d2Nal = N[C@H](Cc1ccc2ccccc2c1)C(=O)O; pGlu = O=C1CC[C@@H](C(=O)O)N1; tBu = CC(C)(C)*
Solubility grading by entry:

{"columns": ["Molecule", "Measurement Label", "Experimental Result"],
 "data": [
  ["N=C(N)NCCC[C@H](NC(=O)[C@H](Cc1c[nH]c2ccccc12)NC(=O)[C@@H](Cc1c[nH]c2ccccc12)NC(=O)[C@H](Cc1ccc(O)cc1)NC(=O)[C@H](CO)NC(=O)[C@H](Cc1c[nH]c2ccccc12)NC(=O)[C@H](Cc1c[nH]cn1)NC(=O)[C@@H]1CCC(=O)N1)C(=O)N1CCC[C@H]1C(=O)NCC(N)=O [Compound 66] ([pGlu]HWSY[dW]WRPG-NH2)", "Solubility grading", 5],
  ["N=C(N)NCCC[C@H](NC(=O)[C@H](Cc1c[nH]c2ccccc12)NC(=O)[C@@H](Cc1ccc2ccccc2c1)NC(=O)[C@H](Cc1ccc(O)cc1)NC(=O)[C@H](CO)NC(=O)[C@H](Cc1c[nH]c2ccccc12)NC(=O)[C@H](Cc1c[nH]cn1)NC(=O)[C@@H]1CCC(=O)N1)C(=O)N1CCC[C@H]1C(=O)NCC(N)=O [Compound 24] ([pGlu]HWSY[d2Nal]WRPG-NH2)", "Solubility grading", 5],
  ["CCNC(=O)[C@@H]1CCCN1C(=O)[C@H](CCCNC(=N)N)NC(=O)[C@H](CC(C)C)NC(=O)[C@@H](COC(C)(C)C)NC(=O)[C@H](Cc1c[nH]cn1)NC(=O)[C@H](CO)NC(=O)[C@H](Cc1c[nH]c2ccccc12)NC(=O)[C@H](Cc1c[nH]cn1)NC(=O)[C@@H]1CCC(=O)N1 [Compound 6] ([pGlu]HWSH[dS](tBu)LRP-NHEt)", "Solubility grading", 1],
  ["CCNC(=O)[C@@H]1CCCN1C(=O)[C@H](Cc1ccc(O)cc1)NC(=O)[C@H](Cc1c[nH]c2ccccc12)NC(=O)[C@@H](Cc1cn(Cc2ccccc2)cn1)NC(=O)[C@H](Cc1c[nH]cn1)NC(=O)[C@H](CO)NC(=O)[C@H](Cc1c[nH]c2ccccc12)NC(=O)[C@H](Cc1c[nH]cn1)NC(=O)[C@@H]1CCC(=O)N1 [Compound 63] ([pGlu]HWSH[dHis(τ-Bn)]WYP-NHEt)", "Solubility grading", 5],
  ["CC(C)C[C@H](NC(=O)[C@@H](Cc1ccc2ccccc2c1)NC(=O)[C@H](Cc1c[nH]cn1)NC(=O)[C@H](CO)NC(=O)[C@H](Cc1c[nH]c2ccccc12)NC(=O)[C@H](Cc1c[nH]cn1)NC(=O)[C@@H]1CCC(=O)N1)C(=O)N[C@@H](CCCNC(=N)N)C(=O)N1CCC[C@H]1C(=O)NCC(N)=O [Compound 23] ([pGlu]HWSH[d2Nal]LRPG-NH2)", "Solubility grading", 1]
]}

Then there is this molecule:
Input: Solubility grading for CCNC(=O)[C@@H]1CCCN1C(=O)[C@H](Cc1ccc(O)cc1)NC(=O)[C@H](Cc1c[nH]c2ccccc12)NC(=O)[C@@H](CC(C)C)NC(=O)[C@H](Cc1c[nH]cn1)NC(=O)[C@H](CO)NC(=O)[C@H](Cc1c[nH]c2ccccc12)NC(=O)[C@H](Cc1c[nH]cn1)NC(=O)[C@@H]1CCC(=O)N1 [Compound 50] ([pGlu]HWSH[dL]WYP-NHEt) ?
Output: 1
